Values compiled from ChEMBL document CHEMBL1145074.

Each entry below carries its measured log10 Ki, system: 5-hydroxytryptamine receptor 2A (Rattus norvegicus, UniProt P14842).
Sequence (P14842 whole entry): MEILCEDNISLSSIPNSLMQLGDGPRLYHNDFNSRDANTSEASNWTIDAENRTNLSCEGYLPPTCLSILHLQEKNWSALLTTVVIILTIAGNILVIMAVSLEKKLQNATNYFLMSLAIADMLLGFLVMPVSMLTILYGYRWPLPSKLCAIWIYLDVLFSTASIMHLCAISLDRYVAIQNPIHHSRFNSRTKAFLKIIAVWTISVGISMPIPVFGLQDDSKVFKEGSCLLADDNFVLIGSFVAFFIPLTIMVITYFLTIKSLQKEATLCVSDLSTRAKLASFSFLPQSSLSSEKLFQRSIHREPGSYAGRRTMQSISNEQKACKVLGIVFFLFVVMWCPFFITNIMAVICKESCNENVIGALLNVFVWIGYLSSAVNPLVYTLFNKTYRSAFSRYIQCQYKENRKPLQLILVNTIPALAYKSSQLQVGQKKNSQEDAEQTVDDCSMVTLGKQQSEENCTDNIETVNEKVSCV
A value of 2 here means Ki of 100 in µM, since values are log10.

Query :: Look up log10 Ki: `Cn1c2c(c3ccccc31)CN(CCCOc1ccccc1)CC2`
Result :: -1.15

Query :: Also check `Cn1c2c(c3ccccc31)CN(CCOc1ccc(F)cc1)CC2`
Result :: -0.76

Query :: Also check `Cn1c2c(c3ccccc31)CN(CCCOc1ccc(N)cc1)CC2`
Result :: -0.55

Query :: Also check `Cn1c2c(c3ccccc31)CNCC2`
Result :: 0.49

Query :: Also check `Cn1c2c(c3ccccc31)CN(CCC/C(=N/O)c1ccc(F)cc1)CC2`
Result :: -1.42

----------
Each entry below carries its measured log10 of Ki, system: 5-hydroxytryptamine receptor 2A (Rattus norvegicus, UniProt P14842).
A value of 2 here means Ki of 100 in nM, since values are log10.

Query :: Look up log10 of Ki: `Cn1c2c(c3ccccc31)CN(C/C=C/CCc1ccccc1)CC2`
Result :: 1.78

Query :: Also check `Cn1c2c(c3ccccc31)CN(CCCOc1ccc([N+](=O)[O-])cc1)CC2`
Result :: 2.45

Query :: Also check `Cn1c2c(c3ccccc31)CN(CCCC(=O)c1ccc(F)cc1)CC2`
Result :: 1.78

Query :: Also check `Cn1c2c(c3ccccc31)CN(CCCOc1ccc3ccccc3c1)CC2`
Result :: 2.68

Query :: Also check `COc1ccc(CCCCN2CCc3c(c4ccccc4n3C)C2)cc1`
Result :: 2.62

Query :: Also check `Cn1c2c(c3ccccc31)CN(CCCC(=O)c1ccccc1)CC2`
Result :: 1.34

----------
Biological target: 5-hydroxytryptamine receptor 5A (Homo sapiens)
Sequence (P47898 whole entry): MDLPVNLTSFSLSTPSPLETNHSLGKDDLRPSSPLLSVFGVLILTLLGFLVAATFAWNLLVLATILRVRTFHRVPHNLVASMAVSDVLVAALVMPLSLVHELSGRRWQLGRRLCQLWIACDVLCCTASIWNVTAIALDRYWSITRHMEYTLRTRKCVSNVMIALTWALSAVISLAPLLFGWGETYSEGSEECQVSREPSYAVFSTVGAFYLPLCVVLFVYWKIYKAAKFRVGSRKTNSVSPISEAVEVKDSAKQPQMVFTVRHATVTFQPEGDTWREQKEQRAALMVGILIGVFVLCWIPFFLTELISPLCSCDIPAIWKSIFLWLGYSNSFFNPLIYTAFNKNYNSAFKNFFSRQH
Test: Binding affinity towards 5-hydroxytryptamine 5A receptor using lysergic acid diethylamide (LSD) as radioligand
What Ki was measured for each of the following?

Query :: Look up Ki: CC1NCCc2c1[nH]c1ccccc21 (configuration not stated) [TETRAHYDROHARMAN]
Result :: > 10 µM

Query :: Also check `CC1=NCCc2c1[nH]c1cc(O)ccc21`
Result :: > 10 µM

Query :: Also check `CN(C)CCCOc1ccc(F)cc1`
Result :: > 10 µM

Query :: Also check `Fc1ccc(OCCCN2CCCCC2)cc1`
Result :: > 10 µM

Query :: Also check `Fc1ccc(OCCCN2CCc3ccccc3C2)cc1`
Result :: 0.4 µM

Query :: Also check COc1ccc2c3c([nH]c2c1)C(C)NCC3 (configuration not stated)
Result :: > 10 µM

Query :: Also check Cn1c2c(c3ccccc31)CC(CCCOc1ccc(N)cc1)CC2 (configuration not stated)
Result :: > 10 µM

Query :: Also check `COc1ccc2[nH]c3c(c2c1)CCN=C3C`
Result :: > 10 µM

Query :: Also check `COc1ccc2c(c1)[nH]c1c(C)nccc12`
Result :: > 10 µM

Query :: Also check `c1ccc2c3c([nH]c2c1)CNCC3`
Result :: 3.2 µM

Query :: Also check `CN(CCCOc1ccc(F)cc1)Cc1cn(C)c2ccccc12`
Result :: 1.08 µM

Query :: Also check COc1ccc2c3c([nH]c2c1)C=NCC3 [CGS-19281A]
Result :: > 10 µM

----------
What Ki was measured for each of the following?
Biological target: 5-hydroxytryptamine receptor 5A (Mus musculus, UniProt P30966)
Sequence (P30966 whole entry): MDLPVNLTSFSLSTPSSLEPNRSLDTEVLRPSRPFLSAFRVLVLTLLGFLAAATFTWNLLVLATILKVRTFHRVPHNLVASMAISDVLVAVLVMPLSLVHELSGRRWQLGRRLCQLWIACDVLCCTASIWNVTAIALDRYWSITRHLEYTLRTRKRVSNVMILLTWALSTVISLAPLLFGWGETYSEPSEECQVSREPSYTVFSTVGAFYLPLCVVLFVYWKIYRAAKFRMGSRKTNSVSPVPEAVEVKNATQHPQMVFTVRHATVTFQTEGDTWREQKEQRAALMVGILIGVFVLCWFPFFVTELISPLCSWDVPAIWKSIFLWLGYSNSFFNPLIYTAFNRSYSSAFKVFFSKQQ
The figure you give is taken to be in nM; do not add the unit.

Query :: Look up Ki: `Cn1c2c(c3ccccc31)CCN(CCCOc1ccccc1)C2`
Result :: 360

Query :: Also check `Cn1c2c(c3ccccc31)CN(CCCO)CC2`
Result :: 1100

Query :: Also check `c1ccc(OCCCN2CCc3[nH]c4ccccc4c3C2)cc1`
Result :: 600

Query :: Also check `O=C(CCCN1CCc2[nH]c3ccccc3c2C1)c1ccc(F)cc1`
Result :: 512

Query :: Also check `Cn1c2c(c3ccccc31)CN(CCCOc1cccc3ccccc13)CC2`
Result :: 650

Query :: Also check `COc1cccc2c3c(n(C)c12)CCN(CCCOc1ccc(F)cc1)C3`
Result :: 1220

Query :: Also check `Cn1c2c(c3ccccc31)CN(CCCCCCc1ccccc1)CC2`
Result :: 435

Query :: Also check `Cn1c2c(c3ccccc31)CN(CCCOCc1ccccc1)CC2`
Result :: 295

Query :: Also check `Fc1ccc(OCCCN2CCc3[nH]c4ccccc4c3C2)cc1`
Result :: 75

Query :: Also check `Cn1c2c(c3ccccc31)CN(CCCOc1ccc(F)cc1)CC2`
Result :: 13

Query :: Also check `COc1ccc2c(c1)c1c(n2C)CCN(CCCOc2ccc(F)cc2)C1`
Result :: 98

Query :: Also check `Cn1c2c(c3ccccc31)CN(CCCc1ccccc1)CC2`
Result :: 250

Query :: Also check `Cn1c2c(c3ccccc31)CN(C/C=C/CCc1ccccc1)CC2`
Result :: 350

Query :: Also check `O=C(CCCN1CCc2c([nH]c3ccccc23)C1)c1ccccc1`
Result :: 550

Query :: Also check `COc1ccc(CCCCN2CCc3c(c4ccccc4n3C)C2)cc1`
Result :: 90

Query :: Also check `c1ccc(Cn2c3c(c4ccccc42)CN(CCCOc2ccccc2)CC3)cc1`
Result :: 875

Query :: Also check `Cn1c2c(c3ccccc31)CN(CCCOc1ccccc1)CC2`
Result :: 25

Query :: Also check `CCn1c2c(c3ccccc31)CN(CCCOc1ccccc1)CC2`
Result :: 75
